These entries and their values trace back to paper PMC9124699.

# assay_procedure: Degradation of LEU and L18FCs and conversion to LEU in human plasma
# Format: in vitro ADME
quantity_name: metabolised at 840 h, 1 mg/mL

metabolised at 840 h, 1 mg/mL reported for this compound CCNC(=O)[C@@H]1CCCN1C(=O)[C@H](CCCNC(=N)N)NC(=O)[C@H](CC(C)C)NC(=O)[C@@H](CC(C)C)NC(=O)[C@H](Cc1ccc(O)cc1)NC(=O)[C@H](CO)NC(=O)[C@H](Cc1c[nH]c2ccccc12)NC(=O)[C@H](Cc1c[nH]cn1)NC(=O)[C@@H]1CCC(=O)N1 [LEU, leuprolide] : ~45.8%
